# ASSAYED TARGET: HIV-1 integrase wild-type (IN1-288) (HIV-1, UniProt P12497 P12497:1148-1435)
# ASSAY INFO: inhibition; first activity column (headed strand transfer); other column 0.013
# ASSAY SETUP: G4, loop 1 inverted
MEASURE: pIC50
Answers are plain numbers, as −log10 of the molar value.

Enquiry: Identify the reported pIC50 for the following entry. GTGGGTGGTGGGTGGGT (ssDNA, PS at first and last linkages) [T30696]
Return: 6.91
